// read-out pIC50, gathered for Sterol O-acyltransferase 1 (Rattus norvegicus) from published studies
pIC50: −log10 of the molar value.
measured_parameter: pIC50

[a] CCCCCCOc1cc(-c2ccccc2)c(-c2ccccc2)nn1
[b] CCCCCCCN(CCCCCSc1nc(-c2ccccc2)c(-c2ccccc2)[nH]1)/C(S)=N\c1c(F)cc(F)cc1F
[c] CCCCCCCC/C=C\CCCCCCCC(=O)N1CCc2cc(OC)c(OC)cc2C1Cc1ccc(OC)c(OC)c1 (stereo not drawn)
Please list these in order of increasing pIC50. Thank you! List each label, following the requested order.
a, c, b

---

// read-out pIC50, gathered for Sterol O-acyltransferase 1 (Rattus norvegicus, UniProt O70536) from published studies
target_under_test: Sterol O-acyltransferase 1 (Rattus norvegicus, UniProt O70536)
Sequence (O70536 whole entry): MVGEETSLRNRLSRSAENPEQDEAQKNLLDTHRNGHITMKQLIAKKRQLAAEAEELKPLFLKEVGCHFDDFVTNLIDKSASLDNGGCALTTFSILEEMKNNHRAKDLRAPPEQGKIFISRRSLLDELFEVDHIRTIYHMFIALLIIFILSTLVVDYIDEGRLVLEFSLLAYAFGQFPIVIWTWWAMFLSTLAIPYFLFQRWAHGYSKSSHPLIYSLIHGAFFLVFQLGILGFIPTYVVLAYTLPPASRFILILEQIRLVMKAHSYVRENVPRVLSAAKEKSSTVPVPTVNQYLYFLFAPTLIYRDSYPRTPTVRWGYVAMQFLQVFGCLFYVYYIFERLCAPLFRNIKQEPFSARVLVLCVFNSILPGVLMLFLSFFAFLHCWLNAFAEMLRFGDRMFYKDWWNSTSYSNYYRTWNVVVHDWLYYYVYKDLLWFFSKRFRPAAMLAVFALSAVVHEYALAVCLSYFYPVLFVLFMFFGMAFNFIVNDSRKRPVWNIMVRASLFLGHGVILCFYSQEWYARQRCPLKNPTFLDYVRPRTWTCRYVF
pIC50: −log10 of the molar value.
measured_parameter: pIC50

Sample records with pIC50:
compound="CCCCCCCCC(SCCCCCC)C(=O)Nc1c(SC)cc(C)nc1SC (single isomer, unassigned)" test_result=6.80
compound=CCCCCCCN(CCCCCSc1nc(-c2ccccc2)c(-c2ccccc2)[nH]1)C(=O)C(C)C test_result=7.00

[1] CC(C)c1cccc(C(C)C)c1OS(=O)(=O)NC(=O)OC1[C@H](C(C)C)CCC[C@H]1C(C)C (relative stereo)
[2] CC(C)NC(=O)N(CCCCCSc1nc(-c2ccccc2)c(-c2ccccc2)[nH]1)c1ccccc1
Hi there! Just curious which has the higher pIC50 between 1 and 2 . Response format: the label of the selected entry.
2
